These entries and their values trace back to patent US20220127247A1.

Recorded EC50 by entry
- assay target: delF508-CFTR (Homo sapiens, UniProt P13569, DEL508-508)
- Construct: expressed in transfected cells
- Sequence (P13569 with tags, fused parts or gaps DEL508-508): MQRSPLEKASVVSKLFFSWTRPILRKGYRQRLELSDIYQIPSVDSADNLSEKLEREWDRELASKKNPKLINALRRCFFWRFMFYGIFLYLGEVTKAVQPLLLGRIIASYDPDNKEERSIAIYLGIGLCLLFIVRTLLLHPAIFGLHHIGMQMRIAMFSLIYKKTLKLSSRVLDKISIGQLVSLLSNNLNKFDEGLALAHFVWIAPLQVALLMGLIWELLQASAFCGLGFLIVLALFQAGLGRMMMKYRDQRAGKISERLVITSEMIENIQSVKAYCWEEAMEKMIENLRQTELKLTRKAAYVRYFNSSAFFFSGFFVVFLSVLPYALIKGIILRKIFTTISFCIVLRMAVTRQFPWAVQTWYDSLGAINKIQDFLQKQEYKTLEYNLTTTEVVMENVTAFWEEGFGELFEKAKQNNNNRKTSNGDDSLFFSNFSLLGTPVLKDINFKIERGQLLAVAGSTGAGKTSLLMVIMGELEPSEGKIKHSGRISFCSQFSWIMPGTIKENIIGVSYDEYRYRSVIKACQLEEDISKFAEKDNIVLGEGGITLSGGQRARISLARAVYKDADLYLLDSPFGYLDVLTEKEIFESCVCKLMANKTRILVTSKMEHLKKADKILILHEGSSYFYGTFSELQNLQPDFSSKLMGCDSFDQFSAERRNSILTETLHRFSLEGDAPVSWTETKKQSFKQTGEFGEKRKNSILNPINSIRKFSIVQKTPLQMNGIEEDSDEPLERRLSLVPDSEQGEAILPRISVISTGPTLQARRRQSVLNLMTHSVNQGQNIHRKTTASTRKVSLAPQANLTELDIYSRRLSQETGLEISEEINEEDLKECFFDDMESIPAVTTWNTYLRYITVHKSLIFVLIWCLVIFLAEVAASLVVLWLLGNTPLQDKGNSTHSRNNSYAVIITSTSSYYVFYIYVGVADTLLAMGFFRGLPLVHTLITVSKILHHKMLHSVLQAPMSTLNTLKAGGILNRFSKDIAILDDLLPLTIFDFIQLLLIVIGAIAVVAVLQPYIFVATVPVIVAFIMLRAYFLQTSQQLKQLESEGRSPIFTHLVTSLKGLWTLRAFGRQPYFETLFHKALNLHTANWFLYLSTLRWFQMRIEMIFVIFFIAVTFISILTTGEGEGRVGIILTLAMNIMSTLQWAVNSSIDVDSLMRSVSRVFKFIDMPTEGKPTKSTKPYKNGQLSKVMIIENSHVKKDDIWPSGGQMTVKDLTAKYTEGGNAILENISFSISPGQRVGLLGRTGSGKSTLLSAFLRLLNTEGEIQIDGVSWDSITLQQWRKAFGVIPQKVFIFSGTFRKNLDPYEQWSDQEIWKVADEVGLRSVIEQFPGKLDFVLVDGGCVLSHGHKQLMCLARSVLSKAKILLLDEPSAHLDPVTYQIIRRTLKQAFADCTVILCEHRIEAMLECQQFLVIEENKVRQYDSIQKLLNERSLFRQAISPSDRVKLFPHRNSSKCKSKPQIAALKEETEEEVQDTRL
- test description: delF508-CFTR functional activity in primary human bronchial epithelial cells (HBECs), Multi-Transepithelial Clamp Circuit (MTECC-24) assay
- Assay type: cell-based
- test context: primary human delF508-CFTR bronchial epithelial cells, 24 h with compound, equivalent short circuit current (Ieq), forskolin plus potentiator; mean of at least two replicates; read-out: MTECC24-CFHBEC EC50
Entry rule: numbers only, all in nM.

As a guide, the following entries are already answered.
>>> measured("CCCN(CCC(=O)O)c1cccc(S(=O)(=O)Nc2ccc(C(F)(F)F)c(-c3ccccc3C)n2)n1")
179
>>> measured("CCc1ccccc1-c1nc(NS(=O)(=O)c2cccc(N(CC)CCC(=O)O)n2)ccc1C(F)(F)F")
116
>>> measured("CCCN(CCCC(=O)O)c1cccc(S(=O)(=O)Nc2ccc(Cl)c(-c3ccccc3C)n2)n1")
230

The value of EC50 measured for the compound CCCN(CCCC(=O)O)c1cccc(S(=O)(=O)Nc2ccc(C(F)(F)F)c(-c3cc(F)ccc3C)n2)n1 turned out to be 327
